- Tested on: WM3928 cells
- PROTOCOL_TEXT: WM3928 Cell Proliferation Assay (1)
- Format: cell-based
pIC50: −log10 of the molar value.
Quick list: pIC50 per entry.

{"columns": ["MOLECULE", "pIC50"],
 "data": [
  ["COC(=O)Nc1cc(-c2nccc(-c3cc(NC(=O)c4ccnc(C(C)(C)C#N)c4)c(F)cc3C)n2)ccn1", "≥ 7.00"]
]}

[ask] Output pIC50 of `Cc1ccc(NC(=O)c2cc(C3CC3)n(C)n2)cc1-c1cc(-c2ccnc(NC(=O)C3CC3)c2)cnn1`
[reply] ≥ 7.00

[ask] Output pIC50 of `Cc1ncc(NC(=O)c2cnnc(C3CC3)c2)cc1-c1ccnc(-c2ccnc(NC(=O)C3CC3)c2)c1`
[reply] 5.00 to 6.00

[ask] Output pIC50 of `CNC(=O)c1cc(-c2cnnc(-c3cc(NC(=O)c4ccnc(C(F)F)c4)ccc3C)c2)ccn1`
[reply] 5.00 to 6.00

###

Quick list: pIC50 per entry.
- TARGET_ENTITY: A-Raf kinase (SEQ. ID No: 1) (Homo sapiens (Human), UniProt P10398, Y301D/Y302D)
- Sequence (P10398 other isoform, or with tags, fused parts or gaps Y301D (already in the parent)/Y302D (already in the parent)): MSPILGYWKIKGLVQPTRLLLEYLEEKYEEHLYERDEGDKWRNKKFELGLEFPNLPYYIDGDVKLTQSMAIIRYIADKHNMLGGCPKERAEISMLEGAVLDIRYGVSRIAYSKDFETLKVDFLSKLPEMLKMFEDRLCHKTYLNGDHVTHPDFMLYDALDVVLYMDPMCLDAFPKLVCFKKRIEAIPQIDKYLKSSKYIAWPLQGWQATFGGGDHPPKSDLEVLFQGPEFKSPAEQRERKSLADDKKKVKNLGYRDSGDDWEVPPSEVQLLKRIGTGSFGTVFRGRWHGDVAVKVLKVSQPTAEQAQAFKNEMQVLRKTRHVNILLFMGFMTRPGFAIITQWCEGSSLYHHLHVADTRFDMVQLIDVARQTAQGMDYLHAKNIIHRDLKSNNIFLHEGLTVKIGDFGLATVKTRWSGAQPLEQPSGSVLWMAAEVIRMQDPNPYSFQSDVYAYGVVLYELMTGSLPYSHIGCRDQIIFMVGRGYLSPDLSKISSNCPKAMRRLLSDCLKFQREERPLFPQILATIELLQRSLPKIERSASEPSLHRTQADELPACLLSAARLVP
- PROTOCOL_TEXT: Biochemical Assay for A-Raf (2)
- EXPERIMENTAL_CONTEXT: Table J, biochemical assay (2); read-out: ARAF (2)
pIC50: −log10 of the molar value.

Would you please look over these solved cases?
{"columns": ["SMILES_DATA", "TARGET_ENTITY", "pIC50"],
 "data": [
  ["Cc1ccc(NC(=O)c2ccnc(C(C)(C)F)c2)cc1-c1ccnc(-c2ccnc(C(=O)NCCN(C)C)c2)c1", "A-Raf kinase (SEQ. ID No: 1) (Homo sapiens (Human), UniProt P10398, Y301D/Y302D)", "5.00 to 6.00"],
  ["Cc1ccc(NC(=O)c2ccnc(C3(C#N)CC3)c2)cc1-c1ccnc(-c2ccnc(NC(=O)C3CC3)c2)c1", "A-Raf kinase (SEQ. ID No: 1) (Homo sapiens (Human), UniProt P10398, Y301D/Y302D)", "6.30 to 7.00"],
  ["Cc1ccc(NC(=O)c2ccnc(C(C)C)c2)cc1-c1ccnc(-c2ccnc(NC(=O)C3CC3)c2)c1", "A-Raf kinase (SEQ. ID No: 1) (Homo sapiens (Human), UniProt P10398, Y301D/Y302D)", "6.30 to 7.00"],
  ["Cc1ccc(NC(=O)c2cc(C(F)(F)F)ccc2F)cc1-c1ccnc(-c2ccnc(NC(=O)C3CC3)c2)c1", "A-Raf kinase (SEQ. ID No: 1) (Homo sapiens (Human), UniProt P10398, Y301D/Y302D)", "6.30 to 7.00"],
  ["Cc1ccc(NC(=O)c2ccnc(C(C)(C)F)c2)cc1-c1cnnc(-c2ccnc(C(N)=O)c2)c1", "A-Raf kinase (SEQ. ID No: 1) (Homo sapiens (Human), UniProt P10398, Y301D/Y302D)", "5.00 to 6.00"],
  ["Cc1cc(-c2cc(NC(=O)c3ccnc(C(C)(C)F)c3)ccc2C)cc(-c2ccnc(C#N)c2)n1", "A-Raf kinase (SEQ. ID No: 1) (Homo sapiens (Human), UniProt P10398, Y301D/Y302D)", "5.00 to 6.00"]
]}

[ask] Output pIC50 of `CNC(=O)c1cc(-c2cc(-c3cc(NC(=O)c4cnnc(C(C)(F)F)c4)ccc3C)ccn2)ccn1`
[reply] 5.00 to 6.00
